Could you please report measured pIC50 for the items listed next?
Target: T-type calcium channel (Homo sapiens, UniProt O95180)
Experiment: T-type channel blocking, FLIPR data (Table 6)
Assay type: cell-based
Conditions: CAv3.2, closed state, read-out: CAv3.2 IC50 Closed
Remember the convention: pIC50 equals -log10 of concentration in molar.

Which measured pIC50 value corresponds to CC(C)(C[C@H]1C[C@@H](NC(=O)c2ccc(Cl)cn2)C1)S(=O)(=O)c1cccc(C(F)(F)F)c1 ?
5.34

Give its pIC50 value. Item: CC(C)(C1CC(CNC(=O)c2ccc(C(F)(F)F)cc2S(C)(=O)=O)C1)S(=O)(=O)c1cccc(C(F)(F)F)c1 (stereo not drawn)
5.03

Would you mind telling me what pIC50 value was observed for CC(C)([C@H]1C[C@H](NC(=O)c2ccc(C(F)(F)F)cc2S(C)(=O)=O)C1)S(=O)(=O)c1cccc(OC(F)(F)F)c1 ?
5.37

Fill in the blank: the reported pIC50 of CC(C)(C[C@H]1C[C@@H](NC(=O)c2ccc(Cl)cc2S(C)(=O)=O)C1)S(=O)(=O)c1cccc(C(F)(F)F)c1 is ____.
5.20

----------
Biological target: human α1H T-type channels (Homo sapiens, UniProt O95180)
Sequence (O95180 whole entry): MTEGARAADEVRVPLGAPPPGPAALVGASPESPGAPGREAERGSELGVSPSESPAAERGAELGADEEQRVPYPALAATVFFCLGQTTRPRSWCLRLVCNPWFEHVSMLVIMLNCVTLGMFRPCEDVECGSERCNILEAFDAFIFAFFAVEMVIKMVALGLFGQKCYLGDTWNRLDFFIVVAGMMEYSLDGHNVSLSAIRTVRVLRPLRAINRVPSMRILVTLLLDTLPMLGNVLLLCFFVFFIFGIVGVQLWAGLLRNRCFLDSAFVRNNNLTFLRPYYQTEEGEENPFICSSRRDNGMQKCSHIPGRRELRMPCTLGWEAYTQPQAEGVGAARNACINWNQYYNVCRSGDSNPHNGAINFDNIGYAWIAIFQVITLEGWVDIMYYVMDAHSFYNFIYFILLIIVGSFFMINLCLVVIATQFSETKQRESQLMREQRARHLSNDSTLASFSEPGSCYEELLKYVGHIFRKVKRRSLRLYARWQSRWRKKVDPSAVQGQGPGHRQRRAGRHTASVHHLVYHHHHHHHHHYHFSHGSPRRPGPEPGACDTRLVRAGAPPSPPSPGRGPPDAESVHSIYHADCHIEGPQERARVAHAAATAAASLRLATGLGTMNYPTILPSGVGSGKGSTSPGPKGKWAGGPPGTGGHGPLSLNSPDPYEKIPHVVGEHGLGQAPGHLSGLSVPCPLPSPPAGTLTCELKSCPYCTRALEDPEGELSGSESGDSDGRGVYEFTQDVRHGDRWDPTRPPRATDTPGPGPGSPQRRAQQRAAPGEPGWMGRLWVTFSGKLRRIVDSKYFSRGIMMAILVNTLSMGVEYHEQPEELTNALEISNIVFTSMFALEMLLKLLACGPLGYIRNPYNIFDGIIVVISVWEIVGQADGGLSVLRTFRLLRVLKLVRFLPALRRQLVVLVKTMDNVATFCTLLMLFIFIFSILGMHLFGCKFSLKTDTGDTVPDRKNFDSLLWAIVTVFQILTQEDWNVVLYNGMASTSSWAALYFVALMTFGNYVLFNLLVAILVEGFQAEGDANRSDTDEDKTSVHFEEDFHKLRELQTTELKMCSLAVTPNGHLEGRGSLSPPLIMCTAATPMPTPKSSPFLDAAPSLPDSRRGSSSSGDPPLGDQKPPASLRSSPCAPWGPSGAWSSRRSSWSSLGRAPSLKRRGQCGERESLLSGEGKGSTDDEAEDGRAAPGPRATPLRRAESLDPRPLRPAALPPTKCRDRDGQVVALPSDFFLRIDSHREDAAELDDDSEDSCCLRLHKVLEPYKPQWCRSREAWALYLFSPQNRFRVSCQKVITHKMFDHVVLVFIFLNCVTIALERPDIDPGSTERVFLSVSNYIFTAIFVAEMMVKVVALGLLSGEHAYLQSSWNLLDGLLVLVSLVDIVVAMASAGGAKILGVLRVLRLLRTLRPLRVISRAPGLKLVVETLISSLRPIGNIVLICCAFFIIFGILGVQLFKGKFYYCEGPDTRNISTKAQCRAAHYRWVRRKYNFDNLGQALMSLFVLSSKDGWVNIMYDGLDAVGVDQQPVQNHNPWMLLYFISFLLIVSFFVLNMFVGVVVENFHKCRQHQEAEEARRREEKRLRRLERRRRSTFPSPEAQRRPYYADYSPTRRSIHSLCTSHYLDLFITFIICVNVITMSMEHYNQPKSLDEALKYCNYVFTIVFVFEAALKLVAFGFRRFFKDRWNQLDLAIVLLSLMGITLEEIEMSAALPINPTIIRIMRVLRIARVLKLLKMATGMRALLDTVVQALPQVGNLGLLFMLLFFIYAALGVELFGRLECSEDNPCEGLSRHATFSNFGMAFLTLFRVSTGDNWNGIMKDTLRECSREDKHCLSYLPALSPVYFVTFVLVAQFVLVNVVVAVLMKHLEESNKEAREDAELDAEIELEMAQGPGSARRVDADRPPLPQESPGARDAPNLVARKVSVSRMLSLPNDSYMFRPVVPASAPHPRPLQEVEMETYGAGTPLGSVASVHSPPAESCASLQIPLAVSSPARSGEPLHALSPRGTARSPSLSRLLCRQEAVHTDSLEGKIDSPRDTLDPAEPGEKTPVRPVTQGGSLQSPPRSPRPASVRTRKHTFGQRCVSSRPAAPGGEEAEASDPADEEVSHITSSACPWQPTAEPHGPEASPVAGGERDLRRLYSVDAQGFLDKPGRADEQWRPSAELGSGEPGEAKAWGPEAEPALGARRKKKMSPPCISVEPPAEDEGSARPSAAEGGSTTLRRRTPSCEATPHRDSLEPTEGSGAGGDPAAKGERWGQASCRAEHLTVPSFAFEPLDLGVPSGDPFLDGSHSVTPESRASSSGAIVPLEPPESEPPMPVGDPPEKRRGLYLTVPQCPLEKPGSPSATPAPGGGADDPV
Assay: T-type calcium channel block, whole cell patch clamp, α1H
Conditions: HEK cells stably expressing human α1H; mainly non-inactivated protocol; values above 10,000 nM represented as 10000
Measured Metric: IC50 (µM)
The response must be a number in µM with no trailing unit.

Which IC50 is reported for this molecule? O=C(N[C@H]1C[C@H](CS(=O)(=O)c2cccc(C(F)(F)F)c2)C1)c1ccc(C(F)(F)F)cn1
0.26

For the molecule shown here, O=C(N[C@H]1C[C@H](S(=O)(=O)c2cccc(C(F)(F)F)c2)C1)c1ccc(Cl)c(F)c1 , give the reported IC50.
8.37

Data request, read-out IC50, for O=C(N[C@H]1CC[C@@](F)(S(=O)(=O)c2cccc(C(F)(F)F)c2)CC1)C1CCCC1
0.54

IC50 for O=C(N[C@H]1CC[C@@](F)(S(=O)(=O)c2cccc(C(F)(F)F)c2)CC1)[C@@H]1CC[C@H](c2ccccc2)N1 ?
1.04

Endpoint output: IC50 of CC1(NC(=O)c2ccc(F)c(Cl)c2)CCC(S(=O)(=O)c2cccc(C(F)(F)F)c2)CC1 (stereo not shown) . Value?
5.71

Please report the recorded IC50 for CN(C(=O)c1ncc(C(F)(F)F)cc1S(C)(=O)=O)[C@H]1CC[C@@](F)(S(=O)(=O)c2cc(F)cc(C(F)(F)F)c2)CC1 .
8.66

Consider the molecule shown here: Cc1noc(C)c1S(=O)(=O)N[C@H]1CC[C@@](F)(S(=O)(=O)c2cccc(C(F)(F)F)c2)CC1 What is its recorded IC50?
0.24

# IC50 lookup, item O=C(Nc1cc(C(F)(F)F)ccn1)[C@H]1C[C@@H](S(=O)(=O)c2cccc(C(F)(F)F)c2)C1
1.79

Given CC1(NC(=O)c2ccc(F)c(C(F)(F)F)c2)CCC(F)(S(=O)(=O)c2cccc(C(F)(F)F)c2)CC1 (stereo not shown) , state its recorded IC50.
0.64

So what's the measured IC50 for this one? Cn1nc(C(F)(F)F)cc1C(=O)NC[C@H]1C[C@H](S(=O)(=O)c2cccc(C(F)(F)F)c2)C1
0.74

If you can, please state the reported IC50 value of Cn1nc(C(F)(F)F)cc1C(=O)N[C@H]1CC[C@@](F)(S(=O)(=O)c2cc(F)cc(C(F)(F)F)c2)CC1 .
0.75

Would you kindly share the measured IC50 for O=C1c2cc(C(F)(F)F)nn2CCN1[C@H]1CC[C@@](F)(S(=O)(=O)c2cc(F)cc(C(F)(F)F)c2)CC1 ?
0.96

What value of measured IC50 is listed for O=C(Nc1ccc(Oc2ccc(C(F)(F)F)cn2)nc1)[C@H]1C[C@H](S(=O)(=O)c2cccc(C(F)(F)F)c2)C1 ?
5.92

Requested read-out: IC50. Entry: CC(C)(CN[C@H]1CC[C@@H](C(F)(F)F)CC1)S(=O)(=O)c1cccc(C(F)(F)F)c1
3.28

# get_value(readout='IC50', item= CC(C)S(=O)(=O)c1cc(C(F)(F)F)cnc1C(=O)N[C@H]1CC[C@@](F)(S(=O)(=O)c2cccc(C(F)(F)F)c2)CC1 )
1.46

Entry under review: O=C(N[C@H]1CC[C@](F)(S(=O)(=O)c2cccc(C(F)(F)F)c2)CC1)c1ccc(F)c(C(F)(F)F)c1 . Reported IC50?
0.96

Need IC50 of Cn1nc(C(F)(F)F)cc1C(=O)N[C@H]1CC[C@@](F)(S(=O)(=O)c2cccc(OC(F)(F)F)c2)CC1 , thanks.
3.32

IC50 for O=C(CNC[C@H]1CC[C@@H](S(=O)(=O)c2cccc(C(F)(F)F)c2)CC1)NC1CCCCC1 ?
5.11

IC50 for CC(C)(C(=O)N[C@H]1CC[C@@](F)(S(=O)(=O)c2cccc(C(F)(F)F)c2)CC1)S(=O)(=O)c1cccc(C(F)(F)F)c1 ?
6.06

Sourced from patent US20120245137A1
